- Experimental System: T1, IL-2R on human primary T cells (human, UniProt P01589 22-272; P14784 27-551; P31785 23-369)
- T1 sequence (looked up) 1: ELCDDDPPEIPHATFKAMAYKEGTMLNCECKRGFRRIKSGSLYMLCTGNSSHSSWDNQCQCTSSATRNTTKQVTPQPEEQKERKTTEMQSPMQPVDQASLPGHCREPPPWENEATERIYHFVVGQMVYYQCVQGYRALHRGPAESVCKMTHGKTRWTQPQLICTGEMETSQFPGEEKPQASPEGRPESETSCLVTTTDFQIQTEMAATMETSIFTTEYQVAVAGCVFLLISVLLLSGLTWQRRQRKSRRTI
- T1 sequence (looked up) 2: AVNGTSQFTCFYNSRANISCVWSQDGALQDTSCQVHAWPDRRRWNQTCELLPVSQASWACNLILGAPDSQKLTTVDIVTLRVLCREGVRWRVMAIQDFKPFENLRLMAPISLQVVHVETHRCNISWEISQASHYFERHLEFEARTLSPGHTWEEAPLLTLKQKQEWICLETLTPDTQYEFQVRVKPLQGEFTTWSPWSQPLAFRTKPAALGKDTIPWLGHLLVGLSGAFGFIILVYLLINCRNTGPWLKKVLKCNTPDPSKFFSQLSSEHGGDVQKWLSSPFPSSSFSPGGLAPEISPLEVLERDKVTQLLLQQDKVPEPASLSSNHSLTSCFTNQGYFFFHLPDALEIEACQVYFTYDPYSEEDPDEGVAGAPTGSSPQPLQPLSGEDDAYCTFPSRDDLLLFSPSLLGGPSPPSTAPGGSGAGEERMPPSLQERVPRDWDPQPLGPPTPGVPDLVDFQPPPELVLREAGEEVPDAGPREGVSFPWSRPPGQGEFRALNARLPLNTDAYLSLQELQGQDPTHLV
- T1 sequence (looked up) 3: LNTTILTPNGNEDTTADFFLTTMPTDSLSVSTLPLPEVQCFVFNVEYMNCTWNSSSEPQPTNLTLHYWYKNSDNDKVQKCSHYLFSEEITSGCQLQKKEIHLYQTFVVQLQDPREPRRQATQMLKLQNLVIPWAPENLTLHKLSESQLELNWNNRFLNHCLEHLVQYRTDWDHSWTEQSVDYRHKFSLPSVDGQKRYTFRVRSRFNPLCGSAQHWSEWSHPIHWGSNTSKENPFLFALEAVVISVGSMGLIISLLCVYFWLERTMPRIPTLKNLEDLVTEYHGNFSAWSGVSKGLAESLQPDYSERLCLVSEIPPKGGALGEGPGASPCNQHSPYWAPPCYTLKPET
- Protocol: cell-based or functional assay
Test Readout: CD4 conv EC50 (nM), STAT5 phosphorylation

Binder: SEQ ID NO 17 (ligand) APTSSSTKKTQLQLEHLRLDLQMILNGINNYKNPKLTRMLTFKFYMPKKATELKHLQCLEEELKPLEEVLNLAQSKNFHFDPRDVVSNINVFVLELKGSETTFMCEYADETATIVEFLNRWITFSTSIISTLT
Measured: 1000 nM

Binder: SEQ ID NO 29 (ligand) APTSSSTKKTQLQLEHLLLDLQMILNGINNHKNPRLTRMLTFKFYMPKKATELKHLQCLEEELKPLEEVLNLAPSKNFHLRPRDLISNINVIVLELKGSETTFMCEYADETATIVEFLNRWITFSTSIISTLT
Measured: 2290 nM

Binder: SEQ ID NO 38 (ligand) APTSSSTKKTQLQLEHLLLDLQMILNGINNYKNPKLTRMLTFKFYMPKKATELKHLQCLEEELKPLEEALRLAPSKNFHLRPRDLISDINVIVLELKGSETTFMCEYADETATIVEFLNRWITFSQSIISTLT
Measured: 8880 nM

Binder: SEQ ID NO 31 (ligand) APTSSSTKKTQLQLEHLLLDLQMILNGINNYKNPKLTRMLTFKFYMPKKATELKHLQCLEEELKPLEEALNLAPSKNFHLRPRDLISDINVIVLELKGSETTFMCEYADETATIVEFLNRWITFSQSIISTLT
Measured: 7000 nM
